- ASSAY_PROCEDURE: Room-temperature solubility in solvents
- Assay type: physicochemical
- COND: organic solvent or mixture, thermodynamic from solid; DCM, room temperature; read-out: Solubility S
VALUE_KIND: solubility

// solubility value for Cn1cc2cc(-c3nn4ccc(C5CC5)nc4c(-c4ccc(OC(F)F)cc4)c3=O)ccc2n1 [Crystal form G] : 1900 to 2300 µg/mL

----------
- ASSAY_PROCEDURE: Dynamic solubility in buffers and water (HPLC, XRD of remaining solid)
- Format: physicochemical
- COND: water, thermodynamic from solid; H2O, 1 h, 37 °C, feed concentration 10 mg/mL
VALUE_KIND: solubility at 1 h
Answer shape: numeric part, then the unit.

solubility at 1 h measured on Cn1cc2cc(-c3nn4ccc(C5CC5)nc4c(-c4ccc(OC(F)F)cc4)c3=O)ccc2n1 [Crystal form G] = 0.13 µg/mL

----------
- ASSAY_PROCEDURE: Dynamic solubility in buffers and water (HPLC, XRD of remaining solid)
- Format: physicochemical
- COND: pH 1.0 buffer, simulated gastric fluid, thermodynamic from solid; pH 1.0, 24 h, 37 °C, feed concentration 10 mg/mL
VALUE_KIND: solubility at 24 h (µg/mL)
Field format: number, assumed µg/mL, no unit text.

Field solubility at 24 h (entry Cn1cc2cc(-c3nn4ccc(C5CC5)nc4c(-c4ccc(OC(F)F)cc4)c3=O)ccc2n1 [Crystal form G] ) reads 0.12

----------
- ASSAY_PROCEDURE: Room-temperature solubility in solvents
- Type: physicochemical
- COND: organic solvent or mixture, thermodynamic from solid; MIBK, room temperature; read-out: Solubility S
VALUE_KIND: solubility

For record Cn1cc2cc(-c3nn4ccc(C5CC5)nc4c(-c4ccc(OC(F)F)cc4)c3=O)ccc2n1 [Crystal form G] the listed solubility is 2000 to 2500 µg/mL

----------
- ASSAY_PROCEDURE: Dynamic solubility in buffers and water (HPLC, XRD of remaining solid)
- Format: physicochemical
- COND: pH 1.0 buffer, simulated gastric fluid, thermodynamic from solid; pH 1.0, 1 h, 37 °C, feed concentration 10 mg/mL
VALUE_KIND: solubility at 1 h (µg/mL)
The reply should contain only the number, in µg/mL.

Entry Cn1cc2cc(-c3nn4ccc(C5CC5)nc4c(-c4ccc(OC(F)F)cc4)c3=O)ccc2n1 [Crystal form G] — recorded solubility at 1 h = 0.32

----------
- ASSAY_PROCEDURE: Room-temperature solubility in solvents
- Assay type: physicochemical
- COND: organic solvent or mixture, thermodynamic from solid; DMSO, room temperature; read-out: Solubility S
VALUE_KIND: solubility

solubility in this record for Cn1cc2cc(-c3nn4ccc(C5CC5)nc4c(-c4ccc(OC(F)F)cc4)c3=O)ccc2n1 [Crystal form G] : 9.5 to 19 mg/mL

----------
- ASSAY_PROCEDURE: Room-temperature solubility in solvents
- Type: physicochemical
- COND: organic solvent or mixture, thermodynamic from solid; CHCl3, room temperature; read-out: Solubility S
VALUE_KIND: solubility

For record Cn1cc2cc(-c3nn4ccc(C5CC5)nc4c(-c4ccc(OC(F)F)cc4)c3=O)ccc2n1 [Crystal form G] the listed solubility is > 10.5 mg/mL

----------
- ASSAY_PROCEDURE: Room-temperature solubility in solvents
- Format: physicochemical
- COND: organic solvent or mixture, thermodynamic from solid; IPA, room temperature; read-out: Solubility S
VALUE_KIND: solubility

response.value for Cn1cc2cc(-c3nn4ccc(C5CC5)nc4c(-c4ccc(OC(F)F)cc4)c3=O)ccc2n1 [Crystal form G] (field: solubility) = ~1 mg/mL
